These entries and their values trace back to patent US20220127297A1.

# Test system: S. aureus ATCC 29213
# ASSAY_PROTOCOL: MIC 90, broth micro-dilution, ATCC strains
# Type: cell-based, Staphylococcus aureus
# TEST_CONDITIONS: Staphylococcus aureus, ATCC29213, read-out: MIC 90
Consider the following compounds and their measured MIC90 readings.
State the value, then name its unit.

Below, each entry is followed by its recorded MIC90 result.
- COMPOUND: "N=C(NC[C@@H]1CCCN1)NC1[C@@H](O)C(OC2[C@@H](F)[C@H](O[C@H]3OC(CN)[C@@H](O)CC3N)C(N)C[C@H]2NC(=O)[C@@H](O)CCN)O[C@H](CO)[C@H]1O (stereo partly shown)"
  REPORTED_MEASUREMENT: "0.5 µM"
- COMPOUND: "NCC[C@H](O)C(=O)N[C@@H]1C[C@H](N)[C@@H](O[C@H]2O[C@H](CN)[C@@H](O)[C@H](O)[C@H]2O)[C@H](O)[C@H]1O[C@H]1O[C@H](CO)[C@@H](O)[C@H](N)[C@H]1O [Amikacin, amikacin, reference compound]"
  REPORTED_MEASUREMENT: "4 µM"
- COMPOUND: "N=C(N)NC1[C@@H](O)C(OC2[C@@H](F)[C@H](O[C@H]3OC(CN)[C@@H](O)[C@H](O)C3N)C(N)C[C@H]2NC(=O)[C@@H](O)CCN)O[C@H](CO)[C@H]1O (stereo partly drawn) [ABX4004, 3′epi-KanaB-AHB-F-Gua]"
  REPORTED_MEASUREMENT: "2 µM"

Form: compound = N=C(N)NC1C(O)[C@@H](CO)OC(OC2C(F)[C@H](O[C@H]3OC(CN)[C@@H](O)CC3N)C(N)C[C@H]2NC(=O)[C@@H](O)CCN)[C@@H]1O (stereo partly shown) ; MIC90 = 0.5 µM

For this compound ( N=C(NCCCN)NC1[C@@H](O)C(OC2[C@@H](F)[C@H](O[C@H]3OC(CN)[C@@H](O)CC3N)C(N)C[C@H]2NC(=O)[C@@H](O)CCN)O[C@H](CO)[C@H]1O (stereo partly shown) ), measured MIC90 is 0.5 µM

Reported MIC90 of N=C(NCCN)NC1C(O)[C@@H](CO)OC(OC2C(F)[C@H](O[C@H]3OC(CN)[C@@H](O)CC3N)C(N)C[C@H]2NC(=O)[C@@H](O)CCN)[C@@H]1O (stereo partly shown) : 0.25 µM

// recorded MIC90 for N=C(N)NC1[C@@H](O)C(OC2[C@@H](F)[C@H](O[C@H]3OC(CN)[C@@H](O)[C@H](O)C3O)C(N)C[C@H]2NC(=O)[C@@H](O)CCN)O[C@H](CO)[C@H]1O (stereo partly drawn) [ABX3003, 3′epi-KanaA-AHB-F-Gua] : 2 µM

---

# System: E. coli ATCC25922 strain
# ASSAY_PROTOCOL: MIC 50, broth micro-dilution, wild-type Escherichia coli
# Type: cell-based
# TEST_CONDITIONS: MH2, 18 h
# Experimental: 3.1 Against E. coli Strains Tested reference compounds. Amikacin sulfate (Cat. No. 01693, Chem-Impex), Gentamicin sulfate (Cat. No. G4918, Sigma Aldrich). Microbial strains. […] Inoculum preparation. […] The Inoculums were grown to an optical density (measured by UV/Vis spectroscopy) of 0.6-0.8 at 600 nm. […] MIC determination. […] The optical density was determined by a plate reader at 600 nm, with 10 s shaking before reading. […]
Entries and their measured MIC50 follow.
The reply should contain only the number, in µM.

- COMPOUND: "NCCC(O)C(=O)NC1CC(N)C(OC2OC(CN)C(O)C(O)C2N)C(F)C1OC1OC(CO)C(O)C(N)C1O (stereo not shown)"
  TARGET_ENTITY: "E. coli ATCC25922 strain"
  REPORTED_MEASUREMENT: 1

Lab note: measured MIC50 of NCCC(O)C(=O)NC1CC(N)C(OC2OC(CN)C(O)C(O)C2O)C(F)C1OC1OC(CO)C(O)C(N)C1O (stereo not drawn) [ABX3005, 3′Epi-KanaA-AHB-F] was 4

MIC50 in this record for N=C(N)N[C@@H]1[C@@H](O)[C@@H](O[C@@H]2[C@@H](O)[C@H](O[C@H]3O[C@H](CN)[C@@H](O)[C@@H](O)[C@H]3N)[C@@H](N)C[C@H]2NC(=O)[C@@H](O)CCN)O[C@H](CO)[C@H]1O [ABX4005, 3′Epi-KanaB-AHB-Gua] : 4

Sample NCC[C@H](O)C(=O)N[C@@H]1CC(N)[C@@H](O[C@H]2OC(CN)[C@@H](O)CC2N)[C@H](O)C1OC1O[C@H](CO)[C@@H](O)C(N)[C@H]1O (stereo partly shown) ; MIC50 observed: 2

---

# Test system: E. coli (AAC(3)IV)
# ASSAY_PROTOCOL: MIC 50, broth micro-dilution, E. coli expressing AAC(3)IV
# Type: cell-based, Escherichia coli
# TEST_CONDITIONS: Escherichia coli, ATCC25922, ATCC25922 harboring plasmid encoding AAC(3)IV
ATTRIBUTE_MEASURED: MIC50 (µM)
Only the number, expressed in µM, is required.

// solved cases for MIC50 follow
- COMPOUND: "N=C(NC[C@H]1CCNC1)NC1[C@@H](O)C(OC2[C@@H](F)[C@H](O[C@H]3OC(CN)[C@@H](O)CC3N)C(N)C[C@H]2NC(=O)[C@@H](O)CCN)O[C@H](CO)[C@H]1O (stereo partly drawn)"
  UNITS_OF_MEASURE: "µM"
  MIC50: 1
- COMPOUND: "N=C(NCCCN)NC1[C@@H](O)C(OC2[C@@H](F)[C@H](O[C@H]3OC(CN)[C@@H](O)CC3N)C(N)C[C@H]2NC(=O)[C@@H](O)CCN)O[C@H](CO)[C@H]1O (stereo partly drawn)"
  UNITS_OF_MEASURE: "µM"
  MIC50: 0.5
- COMPOUND: "N=C(NC[C@@H]1CNCCO1)NC1[C@@H](O)C(OC2[C@@H](F)[C@H](O[C@H]3OC(CN)[C@@H](O)CC3N)C(N)C[C@H]2NC(=O)[C@@H](O)CCN)O[C@H](CO)[C@H]1O (stereo partly drawn)"
  UNITS_OF_MEASURE: "µM"
  MIC50: 1
- COMPOUND: "N=C(NCCN)NC1C(O)[C@@H](CO)OC(OC2C(F)[C@H](O[C@H]3OC(CN)[C@@H](O)CC3N)C(N)C[C@H]2NC(=O)[C@@H](O)CCN)[C@@H]1O (stereo partly drawn)"
  UNITS_OF_MEASURE: "µM"
  MIC50: 1
- COMPOUND: "N=C(NCCCO)NC1[C@@H](O)C(OC2[C@@H](F)[C@H](O[C@H]3OC(CN)[C@@H](O)CC3N)C(N)C[C@H]2NC(=O)[C@@H](O)CCN)O[C@H](CO)[C@H]1O (stereo partly drawn) [ABX5041, Tobra-AHB-F-Gua 3-hydroxy-propyl]"
  UNITS_OF_MEASURE: "µM"
  MIC50: 2

Item: N=C(NC[C@@H]1CCCN1)NC1[C@@H](O)C(OC2[C@@H](F)[C@H](O[C@H]3OC(CN)[C@@H](O)CC3N)C(N)C[C@H]2NC(=O)[C@@H](O)CCN)O[C@H](CO)[C@H]1O (stereo partly drawn) | MIC50: 0.5

The reported MIC50 of the compound CC(C)(C)CCNC(=N)NC1[C@@H](O)C(OC2[C@@H](F)[C@H](O[C@H]3OC(CN)[C@@H](O)CC3N)C(N)C[C@H]2NC(=O)[C@@H](O)CCN)O[C@H](CO)[C@H]1O (stereo partly drawn) was 2

---

# System: clinical isolates of multidrug-resistant Klebsiella pneumoniae (and ATCC43816)
# ASSAY_PROTOCOL: MIC determination at Fidelta, clinical isolates
# Type: cell-based
# TEST_CONDITIONS: Klebsiella pneumoniae, ATCC43816, KP-2037; Urine/ESBL, OXA-48
# Excerpt: 3.4.2 MIC Determination at Fidelta (Croatia) Tested reference compounds. Amikacin sulfate (Cat. No. 01693, Chem-Impex), Gentamicin sulfate (Cat. No. G4918, Sigma Aldrich), Ceftazidime Pentahydrate (Cat. No. 1098130, USP), Meropenem (Cat. No. 1392454, USP), Tobramycin (Cat. No. 1667508, USP). Microbial strains. […]
ATTRIBUTE_MEASURED: MIC90

Item NCC[C@H](O)C(=O)N[C@@H]1C[C@H](N)[C@@H](O[C@H]2O[C@H](CN)[C@@H](O)[C@H](O)[C@H]2O)[C@H](O)[C@H]1O[C@H]1O[C@H](CO)[C@@H](O)[C@H](N)[C@H]1O [Amikacin, amikacin, reference compound] ; assay system clinical isolates of multidrug-resistant Klebsiella pneumoniae (and ATCC43816); MIC90 reported as 4 mg/L

Record for C[C@@H](O)[C@H]1C(=O)N2C(C(=O)O)=C(S[C@@H]3CN[C@H](C(=O)N(C)C)C3)[C@H](C)[C@H]12 [Meropenem, meropenem, reference compound] under target or system clinical isolates of multidrug-resistant Klebsiella pneumoniae (and ATCC43816): MIC90 reported as 2 mg/L

Observed MIC90 on clinical isolates of multidrug-resistant Klebsiella pneumoniae (and ATCC43816), entry NC[C@H]1O[C@H](O[C@H]2[C@H](O)[C@@H](O[C@H]3O[C@H](CO)[C@@H](O)[C@H](N)[C@H]3O)[C@H](N)C[C@@H]2N)[C@H](N)C[C@@H]1O , equals 16 mg/L

Measured on clinical isolates of multidrug-resistant Klebsiella pneumoniae (and ATCC43816), CC(C)(O/N=C(\C(=O)N[C@@H]1C(=O)N2C(C(=O)[O-])=C(C[n+]3ccccc3)CS[C@H]12)c1csc(N)n1)C(=O)O [Ceftazidime, reference compound] has a documented MIC90 of > 64 mg/L
